Target: cell-free Hb (Homo sapiens, UniProt P68871+P69905)
Construct: Hemoglobin was prepared from centrifuging human blood; from tissue; host or cells: human blood (red cells lysed, Hb purified on DEAE sephacel)
Sequence (P69905 2-142 limits assumed): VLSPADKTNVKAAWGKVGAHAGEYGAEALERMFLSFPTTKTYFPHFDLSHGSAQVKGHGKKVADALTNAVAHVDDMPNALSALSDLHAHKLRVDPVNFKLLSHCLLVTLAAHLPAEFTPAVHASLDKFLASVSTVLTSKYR
Sequence (P68871 2-147 limits assumed): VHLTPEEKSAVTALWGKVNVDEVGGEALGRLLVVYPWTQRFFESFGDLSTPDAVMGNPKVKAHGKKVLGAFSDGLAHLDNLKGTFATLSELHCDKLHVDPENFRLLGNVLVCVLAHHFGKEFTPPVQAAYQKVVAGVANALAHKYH
Assay: OEC study with normal cell-free Hb
Type: biochemical
Settings: cell-free Hb 12 mg/mL, 2 mM compound; versus control P50 12.5
I'd be grateful if you could share measured ΔP50 for these entries.
One number for each entry, in mmHg.

Fill in ΔP50 for each of the 2 compounds listed.
1. COc1ccc(C=O)cc1OCc1cccc(CO)n1 [TD-8]
2. COc1ccc(OCc2cccc(CO[N+](=O)[O-])n2)c(C=O)c1 [TD-7-1]

Completion:
1. −4.9
2. −3.9

Batch lookup, ΔP50 per entry.
1. COc1ccc(OCc2cccc(CO)n2)c(C=O)c1 [TD-7]
2. O=Cc1ccc(CO)o1 [Compound 5HMF, 5-(hydroxymethyl) furfural, reference compound]
3. COc1ccc(C=O)c(OCc2cccc(CO)n2)c1 [TD-9]
4. O=Cc1ccc(CO[N+](=O)[O-])o1 [TD-1, 5-Nitrooxymethyl furfural]

Completion:
−4.9
−4.2
−5.7
−4.1

----------
Target: Hb (Homo sapiens, UniProt P68871+P69905)
Construct: normal whole blood (AA); from tissue; host or cells: normal whole blood (AA), red blood cells
Experiment: Oxygen equilibrium curve (OEC) study with normal whole blood (AA)
Format: cell-based
Details: 2 mM compound, 1.5 h incubation
measuredMetric: N (Hill coefficient)

Each compound below has a reported value. Please supply its N (Hill coefficient).
1. COc1ccc(C=O)cc1OCc1cccc(CO)n1
2. COc1ccc(OCc2cccc(CO)n2)c(C=O)c1
3. COc1ccc(C=O)c(OCc2cccc(CO)n2)c1
4. COc1ccc(C=O)c(OCc2cccc(CO[N+](=O)[O-])n2)c1
5. O=Cc1ccc(CO)o1 [Compound 5HMF, 5-(hydroxymethyl) furfural, reference compound]

Completion:
1. 1.9 ± 0.1^c†
2. 1.3 ± 0.3^c†
3. 1.6 ± 0.3^c†
4. 1.9^d†
5. 1.8 ± 0.1^c†

----------
Target: Hb (Homo sapiens, UniProt P68871+P69905)
Construct: normal whole blood (AA); from tissue; host or cells: normal whole blood (AA), red blood cells
Experiment: Oxygen equilibrium curve (OEC) study with normal whole blood (AA)
Type: cell-based
Conditions: 2 mM compound, 1.5 h incubation, 37° C.
measuredMetric: P50

// solved cases for P50 follow
compoundString	P50
COc1ccc(C=O)cc1OCc1cccc(CO)n1	25.9 ± 2.5^c† mmHg
COc1ccc(C=O)c(OCc2cccc(CO[N+](=O)[O-])n2)c1	28.6^d† mmHg

Switching to the query record.
Prompt: For the molecule O=Cc1ccc(CO[N+](=O)[O-])o1 , what P50 is on record?
Completion: 27.4 ± 2.3^c† mmHg

----------
Tested on: SS cells
Experiment: In vitro RBC anti-sickling (morphological) study with SS cells
Format: cell-based, human
Settings: Homo sapiens; 0.5 mM; SS cells, 1 h air then 4% O2, 37° C., 5 h; read-out: Inhibition of sickled cells
Assign inhibition at 500 µM to each entry below.
Answers are plain numbers, in %.

Guide cases for inhibition at 500 µM, answers given:
compound	measurementTarget	units	inhibition at 500 µM
COc1ccc(C=O)cc1OCc1cccc(CO)n1 [TD-8]	SS cells	%	14
COc1ccc(C=O)c(OCc2cccc(CO)n2)c1 [TD-9]	SS cells	%	26
COc1ccc(OCc2cccc(CO[N+](=O)[O-])n2)c(C=O)c1 [TD-7-1]	SS cells	%	72

Hi! Can you tell me inhibition at 500 µM for each of these compounds?
1. COc1ccc(OCc2cccc(CO)n2)c(C=O)c1 [TD-7]
2. O=Cc1ccc(CO)o1 [Compound 5HMF, 5-(hydroxymethyl) furfural, reference compound]

Completion:
[95, 4]
